- TARGET: LAP2, Q96RT1
- Sequence (Q96RT1 other isoform, or with tags, fused parts or gaps): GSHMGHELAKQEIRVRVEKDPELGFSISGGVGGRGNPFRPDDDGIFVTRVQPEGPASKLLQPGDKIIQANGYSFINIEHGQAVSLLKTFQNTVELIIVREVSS
- TEST_SUMMARY: holdup assay
- Parameters: key: below the threshold = too weak to quantify, mostly under pKd 3.1 to 4
- DETAILS: plain residues with an end cap or a label only (N-terminal biotin on a linker: ado-ado)
ATTRIBUTE_MEASURED: pKd

- BINDER: "QSLNRMEYIV [JAG1, P78504]"
  ATTRIBUTE_MEASURED: "pKd"
  MEASUREMENT: "below the threshold"
- BINDER: "PEYLGLDVPV [ERBB2, P04626]"
  ATTRIBUTE_MEASURED: "pKd"
  MEASUREMENT: 4.26
- BINDER: "GSGAVEMESV [AQP6, Q13520]"
  ATTRIBUTE_MEASURED: "pKd"
  MEASUREMENT: "below the threshold"
- BINDER: "VYPNAKVELV [PDLIM4_iso2, P50479;P50479-1]"
  ATTRIBUTE_MEASURED: "pKd"
  MEASUREMENT: "below the threshold"
- BINDER: "QSARLWETSI [ADAM22, Q9P0K1]"
  ATTRIBUTE_MEASURED: "pKd"
  MEASUREMENT: 3.96
- BINDER: "LPAHHNATRL [SLC34A1, Q06495;Q06495-1]"
  ATTRIBUTE_MEASURED: "pKd"
  MEASUREMENT: "below the threshold"
- BINDER: "VNKSKLLTDV [KCNA1, Q09470]"
  ATTRIBUTE_MEASURED: "pKd"
  MEASUREMENT: "below the threshold"
- BINDER: "TPPAAKKSRI [BAZ1A, Q9NRL2]"
  ATTRIBUTE_MEASURED: "pKd"
  MEASUREMENT: "below the threshold"
- BINDER: "LKVPPEERLI [CRB2, Q5IJ48]"
  ATTRIBUTE_MEASURED: "pKd"
  MEASUREMENT: "below the threshold"
- BINDER: "VKPQVSESKL [ACOT8, O14734]"
  ATTRIBUTE_MEASURED: "pKd"
  MEASUREMENT: "below the threshold"
- BINDER: "EKKTLIGIKL [GOT1L1, Q8NHS2]"
  ATTRIBUTE_MEASURED: "pKd"
  MEASUREMENT: "below the threshold"
- BINDER: "KKAPTNEFYA [SDC4, P31431]"
  ATTRIBUTE_MEASURED: "pKd"
  MEASUREMENT: "below the threshold"
- BINDER: "EALLQMESVA [CAVIN3, Q969G5]"
  ATTRIBUTE_MEASURED: "pKd"
  MEASUREMENT: "below the threshold"
- BINDER: "SKSNFGSEPL [KIF17, Q9P2E2]"
  ATTRIBUTE_MEASURED: "pKd"
  MEASUREMENT: "below the threshold"
- BINDER: "QGLAERISVL [PRKD2, Q9BZL6]"
  ATTRIBUTE_MEASURED: "pKd"
  MEASUREMENT: "below the threshold"
- BINDER: "RRRESYSTTV [EVI5, O60447]"
  ATTRIBUTE_MEASURED: "pKd"
  MEASUREMENT: 3.88
